system: Mannose-6-phosphate isomerase (Homo sapiens) (UniProt P34949)
Sequence (P34949 whole entry, looked up): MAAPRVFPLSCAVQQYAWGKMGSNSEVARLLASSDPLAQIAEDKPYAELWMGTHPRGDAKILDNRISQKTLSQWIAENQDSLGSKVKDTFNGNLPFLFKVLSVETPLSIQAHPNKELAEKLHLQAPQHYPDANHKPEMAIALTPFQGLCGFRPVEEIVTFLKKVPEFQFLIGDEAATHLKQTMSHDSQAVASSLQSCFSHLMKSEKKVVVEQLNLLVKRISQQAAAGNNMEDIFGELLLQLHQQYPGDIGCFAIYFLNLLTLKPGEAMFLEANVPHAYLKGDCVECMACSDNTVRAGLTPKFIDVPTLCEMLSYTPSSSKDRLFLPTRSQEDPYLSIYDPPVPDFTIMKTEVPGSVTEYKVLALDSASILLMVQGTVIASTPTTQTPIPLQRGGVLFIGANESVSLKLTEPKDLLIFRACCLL
testSummary: inhibitors of human PMI, primary screen, biochemical, fluorescence intensity, coupled assay (AID 1209);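 also: plate controls were DMSO vehicle for no effect and wells lacking substrate for full effect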
conditionLabel: purified PMI enzyme, at 20 µM, active compounds read high
In all, about 190,000 compounds went through this assay and about 810 (0.43%) were called active. The sample as a whole holds a higher share of actives than the screen did.
experimentalReadout: inhibition

Task item: Entry O=C(NC1(C(F)(F)F)Oc2ccc(Cl)cc2O1)N1CCC2(CC1)OCCO2 (stereo not drawn) has what inhibition?
Reply: 79.1% (active)

Task item: Entry C=CCOC(=O)C1=C(C)OC(N)=C(C#N)[C@@]12C(=O)N(CC(N)=O)c1ccccc12 has what inhibition?
Reply: -6.8% (inactive)

Task item: Entry CNC(=O)OCc1n(C)cc[n+]1C has what inhibition?
Reply: 20.7% (inactive)

Task item: Entry c1ccc(CCn2nnnc2CN2CCC(n3nnc4ccccc43)CC2)cc1 has what inhibition?
Reply: -11.1% (inactive)

Task item: Entry O=C1NC(=O)C(CCc2ccncc2)(CCc2ccncc2)C(=O)N1CCc1ccc(F)cc1 has what inhibition?
Reply: -4.4% (inactive)

Task item: Entry CCN(CC)P(c1n(C)cc[n+]1C)N(CC)CC has what inhibition?
Reply: 54.3% (active)

Task item: Entry O=C(N/N=C/c1c(O)n(C2CC2)c(=S)[nH]c1=O)c1ccccc1O has what inhibition?
Reply: 60.8% (active)

Task item: Entry Cc1cc(C=C2C(=O)N(C)C(=S)N(C)C2=O)c(C)n1C1CCCCC1 has what inhibition?
Reply: -12.8% (inactive)

Task item: Entry O=c1[nH]c(=O)n(-c2cccc(Cl)c2)c(O)c1C=NCCCN1CCOCC1 has what inhibition?
Reply: 4.5% (inactive)

Task item: Entry CCCCCCOc1ccc(CN2CCN(CCO)CC2)cc1 has what inhibition?
Reply: -11.3% (inactive)

Task item: Entry CC1C(c2cccs2)=[N+]([O-])C(C)(C(=O)c2cccs2)N1O (stereo not drawn) has what inhibition?
Reply: -1.9% (inactive)

Task item: Entry CN(C)C(=O)OCc1n(C)cc[n+]1C has what inhibition?
Reply: -9.3% (inactive)

Task item: Entry C/C(=N\N1CCCCC1c1cccnc1)c1c(O)n(C2CCCCC2)c(=S)[nH]c1=O (stereo not drawn) has what inhibition?
Reply: 5.8% (inactive)

Task item: Entry COc1cccc(NP(=O)(Oc2ccc(Cl)cc2)Oc2ccc(Cl)cc2)c1 has what inhibition?
Reply: 18.7% (inactive)

Task item: Entry CCCCc1nc(N2CCNCC2)c(C#N)c2c1CSC(C)(C)C2 has what inhibition?
Reply: 3.9% (inactive)

Task item: Entry COc1cccc(N2CCN(Cc3cccc(Cl)c3)CC2)c1 has what inhibition?
Reply: 9.6% (inactive)

Task item: Entry O=c1[nH]c(=S)n(C2CC2)c(O)c1/C=N/Nc1ccccc1 has what inhibition?
Reply: -61.8% (inactive)

Task item: Entry Cc1cc(C=C2C(=O)N(C)C(=S)N(C)C2=O)c(C)n1C1CCCC1 has what inhibition?
Reply: 6% (inactive)

Task item: Entry CCN1C(=O)C(=Cc2cc(C)n(C3CC3)c2C)C(=O)N(CC)C1=S has what inhibition?
Reply: 63.8% (active)

Task item: Entry CCOC(=O)C1(CCc2ccccc2)CCN(Cc2cccc3cnccc23)CC1 has what inhibition?
Reply: 24.8% (inactive)

Task item: Entry CN(C)c1cccc2c(C#N)ccc(N(C)C)c12 has what inhibition?
Reply: 82% (active)

Task item: Entry COC(=O)c1ccccc1N=Cc1c(O)[nH]c(=S)[nH]c1=O has what inhibition?
Reply: -42.9% (inactive)

Task item: Entry CCN(CC)c1ccc(N=Cc2c(O)n(CCc3ccc(OC)c(OC)c3)c(=O)[nH]c2=O)cc1 has what inhibition?
Reply: 50% (active)

###

system: Mannose-6-phosphate isomerase (Homo sapiens) (UniProt P34949)
testSummary: inhibitors of human PMI, primary screen, biochemical, fluorescence intensity, coupled assay (AID 1209);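 also: plate controls were DMSO vehicle for no effect and wells lacking substrate for full effect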
conditionLabel: purified PMI enzyme, at 20 µM, active compounds read high
Among all 190,000 compounds or so, about 810 (0.43%) were called active. The entries come from a sample that favours actives as a whole.
experimentalReadout: inhibition

Task item: Entry CCn1nc(-c2ccccc2)nc2c(=O)n(C)c(=O)nc1-2 has what inhibition?
Reply: -4.4% (inactive)

Task item: Entry CN(C)CCCN=Cc1c(O)n(CCc2ccccc2)c(=O)[nH]c1=O has what inhibition?
Reply: -1.1% (inactive)

Task item: Entry O=C1C=Cc2ccccc2C1=O has what inhibition?
Reply: 79.1% (active)

Task item: Entry CCOP(=O)(C#CC(C)(C)C)C(C)(O)c1ccccc1 (configuration not stated) has what inhibition?
Reply: 3.1% (inactive)

Task item: Entry O=C1C(=O)c2cccc3cccc1c23 has what inhibition?
Reply: 17.2% (inactive)

Task item: Entry COc1ccc(CC2c3cc(OC)c(OC)cc3CCN2C)cc1O (configuration not stated) has what inhibition?
Reply: -2.1% (inactive)

Task item: Entry O=c1c2ccccc2nc(-c2cccs2)n1-c1ccccc1 has what inhibition?
Reply: -8.6% (inactive)

Task item: Entry CCc1ccc(CN2CCN(Cc3ccc(SC)cc3)CC2)cc1 has what inhibition?
Reply: -14.5% (inactive)

Task item: Entry O=C1C(=O)c2ccccc2-c2ccccc21 has what inhibition?
Reply: 25.8% (inactive)

Task item: Entry Cn1ncnc2c(=O)n(C)c(=O)nc1-2 has what inhibition?
Reply: 74.8% (active)

Task item: Entry O=C(C1CC(c2ccc(F)cc2)=NO1)N1CCC2(CC1)OCCO2 (configuration not stated) has what inhibition?
Reply: -5.3% (inactive)

Task item: Entry CCOC(=O)c1c(C)n(Cc2ccccc2)c2ccc(OCC(O)Cn3nc(C)nc3C)cc12 (configuration not stated) has what inhibition?
Reply: 15.7% (inactive)

###

system: Mannose-6-phosphate isomerase (Homo sapiens)
testSummary: inhibitors of human PMI, primary screen, biochemical, fluorescence intensity, coupled assay (AID 1209);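 also: plate controls were DMSO vehicle for no effect and wells lacking substrate for full effect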
conditionLabel: purified PMI enzyme, at 20 µM, active compounds read high
Screen size: about 190,000 compounds; about 810 (0.43%) were called active. The sample as a whole holds a higher share of actives than the screen did.
I'd be grateful if you could share measured inhibition for these entries.
Quick note: give the figure in %, leave out the unit.

Task item: Entry COCCNP(=O)(c1ccccc1)c1nc2ccccc2s1 (stereo unspecified) has what inhibition?
Reply: 1.6

Task item: Entry CCCCCn1c(N)c(C(=O)NCCN2CCOCC2)c2nc3ccccc3nc21 has what inhibition?
Reply: 25.4

Task item: Entry CN(C)c1ccc([P+](=O)c2ccc(N(C)C)cc2)cc1 has what inhibition?
Reply: 10.8

Task item: Entry CC1=CC(=O)NP(=O)(Oc2ccc3ccccc3c2)N1 (stereo unspecified) has what inhibition?
Reply: 78.5

Task item: Entry CCCCn1c(N)c(C(=O)NCc2cccs2)c2nc3ccccc3nc21 has what inhibition?
Reply: 59.9

Task item: Entry CCCCn1c(NC(=O)c2ccc(Br)o2)c(C(=O)OCC)c2nc3ccccc3nc21 has what inhibition?
Reply: 22.2

Task item: Entry CCCCn1c(NC(=O)c2ccco2)c(C(=O)OCC)c2nc3ccccc3nc21 has what inhibition?
Reply: 55.8

Task item: Entry Cc1ccc(NP(=O)(c2ccccc2)c2nc3ccccc3s2)cc1 (stereo unspecified) has what inhibition?
Reply: 80.5

Task item: Entry CC(C)CCn1c(N)c(C(=O)NCc2cccs2)c2nc3ccccc3nc21 has what inhibition?
Reply: 24.5

Task item: Entry CN1CCN(c2c(N)c(=O)oc3ccccc23)CC1 has what inhibition?
Reply: 0.6

Task item: Entry CCCCCn1c(N)c(C(=O)NCc2cccs2)c2nc3ccccc3nc21 has what inhibition?
Reply: 51.9

###

I'd be grateful if you could share measured inhibition for these entries.
system: Mannose-6-phosphate isomerase (Homo sapiens) (UniProt P34949)
testSummary: inhibitors of human PMI, primary screen, biochemical, fluorescence intensity, coupled assay (AID 1209);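 also: plate controls were DMSO vehicle for no effect and wells lacking substrate for full effect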
conditionLabel: purified PMI enzyme, at 20 µM, active compounds read high
Among all 190,000 compounds or so, about 810 (0.43%) were called active. For the sample, actives were picked, then their nearest neighbours and some compounds at random.
Quick note: give the figure in %, leave out the unit.

Task item: // fetch Mannose-6-phosphate isomerase (Homo sapiens) (UniProt P34949) inhibition for Cc1cc(C=C2C(=O)N(C)C(=O)N(C)C2=O)c(C)n1-c1ccccc1
Reply: -25.1

Task item: // fetch Mannose-6-phosphate isomerase (Homo sapiens) (UniProt P34949) inhibition for C=CCN1C(=O)/C(=C/c2cc(C)n(-c3ccccn3)c2C)C(=O)NC1=S
Reply: -25.6

Task item: // fetch Mannose-6-phosphate isomerase (Homo sapiens) (UniProt P34949) inhibition for O=C(O)CCn1cc(C=C2C(=O)NC(=S)NC2=O)c(-c2cccc(Cl)c2)n1
Reply: 64.1

Task item: // fetch Mannose-6-phosphate isomerase (Homo sapiens) (UniProt P34949) inhibition for CC12CCC3C(CCC4C/C(=N/O)CCC43C)C1CCC2O (configuration not stated)
Reply: 2.7

Task item: // fetch Mannose-6-phosphate isomerase (Homo sapiens) (UniProt P34949) inhibition for C[C@]12CC[C@@H]3c4ccc(O)c(O)c4CC[C@H]3[C@@H]1CC[C@@H]2O
Reply: 75.9

Task item: // fetch Mannose-6-phosphate isomerase (Homo sapiens) (UniProt P34949) inhibition for CCn1c(=O)n(CC)c2cc([N+](=O)[O-])c(N3CCNCC3)cc21
Reply: 0.8

Task item: // fetch Mannose-6-phosphate isomerase (Homo sapiens) (UniProt P34949) inhibition for O=C(Cc1ccccc1)OCCNC(=O)c1cccnc1
Reply: -4

Task item: // fetch Mannose-6-phosphate isomerase (Homo sapiens) (UniProt P34949) inhibition for O=C(O)CCn1cc(C=C2C(=O)NC(=S)NC2=O)c(-c2ccccc2)n1
Reply: 55.5

Task item: // fetch Mannose-6-phosphate isomerase (Homo sapiens) (UniProt P34949) inhibition for CCOC(=O)C(NC(=O)C(Cc1ccc(N(CCCl)CCCl)cc1)NC(C)=O)C(C)C (configuration not stated)
Reply: -44.3

Task item: // fetch Mannose-6-phosphate isomerase (Homo sapiens) (UniProt P34949) inhibition for Cc1cccc2c1=NC(=O)/C(=C/c1c(O)[nH]c(=O)[nH]c1=O)C=2
Reply: -7.2

Task item: // fetch Mannose-6-phosphate isomerase (Homo sapiens) (UniProt P34949) inhibition for O=C(O)CCn1cc(C=C2C(=O)NC(=O)NC2=O)c(-c2cc3ccccc3oc2=O)n1
Reply: -3.7

Task item: // fetch Mannose-6-phosphate isomerase (Homo sapiens) (UniProt P34949) inhibition for C=C1N2CCC(CC2)C1(O)c1ccc(C)c(C)c1 (configuration not stated)
Reply: -10.2

Task item: // fetch Mannose-6-phosphate isomerase (Homo sapiens) (UniProt P34949) inhibition for CC(=O)N(C1=NCCCS1)c1ccccc1Cl
Reply: -4.6

Task item: // fetch Mannose-6-phosphate isomerase (Homo sapiens) (UniProt P34949) inhibition for COc1ccc(C(CC(=O)N2CCC3(CC2)OCCO3)NS(=O)(=O)c2ccc(OC)cc2)cc1 (configuration not stated)
Reply: 4.9

Task item: // fetch Mannose-6-phosphate isomerase (Homo sapiens) (UniProt P34949) inhibition for Cc1ccc2c(c1)=C/C(=C\c1c(O)[nH]c(=S)[nH]c1=O)C(=O)N=2
Reply: 21.3

Task item: // fetch Mannose-6-phosphate isomerase (Homo sapiens) (UniProt P34949) inhibition for O=C(O)CCn1cc(C=C2C(=O)NC(=O)NC2=O)c(-c2ccc(Br)cc2)n1
Reply: 5.8

Task item: // fetch Mannose-6-phosphate isomerase (Homo sapiens) (UniProt P34949) inhibition for CCOCCCNC(=O)CN1C2CCC1CC(O)(c1ccc(OC)cc1)C2 (configuration not stated)
Reply: 15

Task item: // fetch Mannose-6-phosphate isomerase (Homo sapiens) (UniProt P34949) inhibition for O=C(NC1(C(F)(F)F)Oc2ccccc2O1)N1CCC2(CC1)OCCO2
Reply: 32.9

Task item: // fetch Mannose-6-phosphate isomerase (Homo sapiens) (UniProt P34949) inhibition for CN1CCc2nc(N)c(C#N)c(-c3ccccc3)c2C1
Reply: 2.3

Task item: // fetch Mannose-6-phosphate isomerase (Homo sapiens) (UniProt P34949) inhibition for Cn1ccnc1P(=S)(c1nccn1C)c1nccn1C
Reply: -5

Task item: // fetch Mannose-6-phosphate isomerase (Homo sapiens) (UniProt P34949) inhibition for Cc1cc(/C=C2/C(=O)NC(=O)N(C)C2=O)c(C)n1-c1ccccc1
Reply: 2.6

Task item: // fetch Mannose-6-phosphate isomerase (Homo sapiens) (UniProt P34949) inhibition for O=C(NC(=O)N1CCC2(CC1)OCCO2)c1ccc(Cl)cc1
Reply: 10.2
